molecular target: T1, Aβ1–42 fibrils (UniProt P05067 672-713); assay: SPR; Biacore 1000; Aβ1–42 fibrils (6800 RU) immobilised on a CM5 chip by amine coupling; PBS pH 7.4; analytes 50 µg/ml, 5 µl/min for 2 minutes, ambient temperature; semi-quantitative: response in % of ACI-80-Kϕ; conditions: both partners purified
T1 construct: amyloid-β peptide Aβ1–42, cut from the amyloid precursor protein (APP), in fibrillar form; Aggregated (fibrillar) state of the same peptide as m15; also called fibrillar Aß1–42; Aβ fibrils; source: bought: JPT Biotech or Bachem AG (HPLC purified peptide); fibrils formed at 37°C (7 days in PBS pH 7.4 for SPR; five days in 50 mM Tris-HCl pH 7.4 for ELISA)
T1 sequence (P05067 672-713): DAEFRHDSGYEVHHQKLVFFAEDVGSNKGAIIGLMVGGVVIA
Square brackets hold non-standard residues; d marks the D form. Primed or numbered codes have the meaning given here. Ends that are not written are not given here. FITC′ = fluorescein isothiocyanate (ϕ)
result-type: Dissociation [%] (response 60 s after end of injection, relative to ACI-80-Kϕ) (%)
Response body: numeric value in %, unit text excluded.

A selection of reference data follows.
[dS][dH][dY][dR][dH][dI][dS][dP][dA][dQ][dK][dK](FITC′) (also: [19F]-4-fluorobenzoyl label, place not given here, D-enantiomeric derivative of ACI-80 (D1): N-terminal glutamine deleted (Q1X), V12K, added C-terminal lysine, fluorinated; also called D1-Q1X-V12K-K[^19F]ϕ; source: synthetic peptide, reacted with [^19F]-N-succinimidyl-4-fluorobenzoate (SFB), HPLC purified) [[^19F]-ACI-88-Kϕ]	1230
[dS][dH][dY][dR][dH][dI][dS][dP][dA][dQ][dK][dK](FITC′) (D-enantiomeric derivative of ACI-80 (D1): N-terminal glutamine deleted (Q1X), V12K, added C-terminal lysine; also called D1-Q1X-V12K-Kϕ; source: synthetic peptide (JPT Peptide Technologies GmbH, Berlin)) [ACI-88-Kϕ]	667
[dQ][dS][dH][dY][dR][dH][dI][dS][dP][dA][dQ][dK][dK](FITC′) (D-enantiomeric derivative of ACI-80 (D1): V12K, added C-terminal lysine; also called D1-V12K-Kϕ; source: synthetic peptide (JPT Peptide Technologies GmbH, Berlin)) [ACI-87-Kϕ]	443
[dS][dH][dY][dR][dH][dI][dS][dP][dA][dQ][dV][dK](FITC′) (D-enantiomeric derivative of ACI-80 (D1): N-terminal glutamine deleted (Q1X), added C-terminal lysine; also called D1-Q1X-Kϕ; source: synthetic peptide (JPT Peptide Technologies GmbH, Berlin)) [ACI-82-Kϕ]	300
[dP][dS][dH][dY][dR][dH][dI][dS][dP][dA][dQ][dV][dK](FITC′) (D-enantiomeric derivative of ACI-80 (D1): Q1P, added C-terminal lysine; also called D1-Q1P-Kϕ; source: synthetic peptide (JPT Peptide Technologies GmbH, Berlin)) [ACI-83-Kϕ]	200

Turning now to a further record.
Given the binder [dP][dS][dH][dY][dR][dH][dI][dS][dP][dA][dQ][dK][dK](FITC′) (D-enantiomeric derivative of ACI-80 (D1): Q1P, V12K, added C-terminal lysine; also called D1-Q1P-V12K-Kϕ; source: synthetic peptide (JPT Peptide Technologies GmbH, Berlin)) [ACI-89-Kϕ] , what is its reported Dissociation [%] (response 60 s after end of injection, relative to ACI-80-Kϕ)?
533
